From: patent US20030068675

- experimental target: ZFP SBS#338 (synthetic)
- Sequence (chain, as listed by the source): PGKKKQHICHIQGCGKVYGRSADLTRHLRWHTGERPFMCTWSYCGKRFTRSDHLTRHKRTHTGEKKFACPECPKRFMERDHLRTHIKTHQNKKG
- measurement notes: EMSA
- condition summary: tags: MBP fusion
measurement label: Kd (nM)
Provide only the numeric value, understood in nM.

For TGCGGGGCAA (dsDNA) DNA 1: TGCGGGGCAA DNA 2: TTGCCCCGCA the binder record lists Kd as 8
